The entries below are paired with their reported self-aminoacylation.
Tested on: biotinyl-Trp-oxazolone
Assay: self-aminoacylation, catalytic enhancement (BWO) (fold over background); higher = more active; k-Seq, kA / k0A0; sequences stand for … in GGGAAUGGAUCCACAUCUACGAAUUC…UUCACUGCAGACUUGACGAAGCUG
This sample holds only a part of the variants without activity.
measure: self-aminoacylation

In [3]: df
Out[3]:
                         biopolymer_sequence              measure  endpoint_value
 0  GCACACUUCAAGCCAUCGGUC [Fam1B.1 aminoacylation ribozyme variant]  self-aminoacylation            3.87
 1  CGUACCCUGGUCAUCGAGUGA [Fam2.1 aminoacylation ribozyme variant]  self-aminoacylation            10.9
 2  ACUACCCUGGUGAUCGAGUGA [Fam2.1 aminoacylation ribozyme variant]  self-aminoacylation            9.48
 3  AUUACCCUGAUCAUCGAGUUA [Fam2.1 aminoacylation ribozyme variant]  self-aminoacylation            0.61
 4  AAACUUCAAACAAUCGGUCUG [Fam1A.1 aminoacylation ribozyme variant]  self-aminoacylation            18.7
 5  CUUCACCUAGGUCAUCGGGUG [Fam2.2 aminoacylation ribozyme variant]  self-aminoacylation            6.65
 6  GUUGACCUAGGUCAUCGGGUG [Fam2.2 aminoacylation ribozyme variant]  self-aminoacylation            5.59
 7  CUACUUCAAAGUAUCGGUCUG [Fam1A.1 aminoacylation ribozyme variant]  self-aminoacylation           0.979
 8  AUUCAUAUAGGUCAUCGGGUG [Fam2.2 aminoacylation ribozyme variant]  self-aminoacylation            5.78
 9  AUUACCCUGGUGAUCGACUGA [Fam2.1 aminoacylation ribozyme variant]  self-aminoacylation           0.743
10  AUACACCUAGGUCAUCGGGGG [Fam2.2 aminoacylation ribozyme variant]  self-aminoacylation            1.22
11  AUUCACUUAGGUCAUCGGGAG [Fam2.2 aminoacylation ribozyme variant]  self-aminoacylation           0.745
12  AUUCACCUAGAUCAUCUGGUG [Fam2.2 aminoacylation ribozyme variant]  self-aminoacylation            2.21
13  AUUAACCGAGGUCAUCGGGUG [Fam2.2 aminoacylation ribozyme variant]  self-aminoacylation            7.45
14  UAGUUUGCUAGUAGUCGCAAG [Fam3.1 aminoacylation ribozyme variant]  self-aminoacylation           0.854
15  CCACACUUUAAGCAAUCGGCC [Fam1B.1 aminoacylation ribozyme variant]  self-aminoacylation            1.85
16  CCACACUUCAACCAAUCGGCC [Fam1B.1 aminoacylation ribozyme variant]  self-aminoacylation            5.45
17  CUACUGCAUACAAUCGGUCUG [Fam1A.1 aminoacylation ribozyme variant]  self-aminoacylation           0.659
18  AUUACCCUCGUCAUCGUGUGA [Fam2.1 aminoacylation ribozyme variant]  self-aminoacylation            1.65
19  AGGUGUGCUAAUAGUCGCAAG [Fam3.1 aminoacylation ribozyme variant]  self-aminoacylation            2.52
20  ACCACCCUGGUCAUCGAGUGA [Fam2.1 aminoacylation ribozyme variant]  self-aminoacylation            9.59
21  AAGUUUGCAAAUAUUCGCAAG [Fam3.1 aminoacylation ribozyme variant]  self-aminoacylation            1.35
22  UUUACCCUGGUCAUCGCGUGA [Fam2.1 aminoacylation ribozyme variant]  self-aminoacylation              19
23  AUUAACCCAGGUCAUCGGGUG [Fam2.2 aminoacylation ribozyme variant]  self-aminoacylation            5.58
24  AUUACCCUGGUCUACGAGUGA [Fam2.1 aminoacylation ribozyme variant]  self-aminoacylation            7.19
25  CUACCUCAAACAAUCGGUCUA [Fam1A.1 aminoacylation ribozyme variant]  self-aminoacylation           0.934
26  AAGUAUGCUAAUAGUCGCAAG [Fam3.1 aminoacylation ribozyme variant]  self-aminoacylation            6.46
27  AUUGCCCUUGUCAUCGAGUGA [Fam2.1 aminoacylation ribozyme variant]  self-aminoacylation             8.3
28  AUUCACCUAUGUCCUCGGGUG [Fam2.2 aminoacylation ribozyme variant]  self-aminoacylation            3.42
29  CCACACUCCAAGCAGUCGGUC [Fam1B.1 aminoacylation ribozyme variant]  self-aminoacylation            1.04
30  AUUACCCUGGUCCUCGGGUGA [Fam2.1 aminoacylation ribozyme variant]  self-aminoacylation            9.25
31  CUACUUCAAACAAUCGGUCUC [Fam1A.1 aminoacylation ribozyme variant]  self-aminoacylation            24.6
32  GAGUUUACUAAUAGUCGCAAG [Fam3.1 aminoacylation ribozyme variant]  self-aminoacylation            2.33
33  AUUAAACUGGUCAUCGAGUGA [Fam2.1 aminoacylation ribozyme variant]  self-aminoacylation            6.94
34  AUUACCCUGGACAUCGUGUGA [Fam2.1 aminoacylation ribozyme variant]  self-aminoacylation             2.5

====

System: biotinyl-Phe-oxazolone
Assay: self-aminoacylation, catalytic enhancement (BFO) (fold over background); higher = more active; k-Seq, kA / k0A0; sequences stand for … in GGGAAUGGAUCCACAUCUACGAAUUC…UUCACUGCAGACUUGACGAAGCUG
This sample holds only a part of the variants without activity.
The entries below are paired with their reported self-aminoacylation.
measure: self-aminoacylation

>>> print(df.to_string())
                        biopolymer_sequence         subject_of_test  endpoint_value
0  AAGUUUGCUACUAGCCGCAAG [Fam3.1 aminoacylation ribozyme variant]  biotinyl-Phe-oxazolone            1.27
1  AGGUGUGCUAAUAGUCGCAAG [Fam3.1 aminoacylation ribozyme variant]  biotinyl-Phe-oxazolone            5.87
2  CUACGUCAAACAAUUGGUCUG [Fam1A.1 aminoacylation ribozyme variant]  biotinyl-Phe-oxazolone            2.06
3  AUUCGCCUAGGUCCUCGGGUG [Fam2.2 aminoacylation ribozyme variant]  biotinyl-Phe-oxazolone            46.8
4  AUUACCCCGGUCAUAGAGUGA [Fam2.1 aminoacylation ribozyme variant]  biotinyl-Phe-oxazolone            43.1

====

Tested on: biotinyl-Leu-oxazolone
Test: self-aminoacylation, catalytic enhancement (BLO) (fold over background); higher = more active; k-Seq, kA / k0A0; sequences stand for … in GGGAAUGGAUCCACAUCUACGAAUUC…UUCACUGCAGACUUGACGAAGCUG
Fewer inactive variants are shown than the library holds.
Please note: true applies when self-aminoacylation is 1 or greater, and false applies otherwise.

In [3]: df
Out[3]:
                         biopolymer_sequence  assigned_class
 0  AGUCACCUAGGUCAUCGGGUA [Fam2.2 aminoacylation ribozyme variant]            true
 1  AUUCACCUAUGUCAUCGGGUU [Fam2.2 aminoacylation ribozyme variant]            true
 2  GAGUUUGCUAAUAGUCGCAAG [Fam3.1 aminoacylation ribozyme variant]            true
 3  AAGUUUGCUAUUAGUCGUAAG [Fam3.1 aminoacylation ribozyme variant]           false
 4  AGUACCCUGAUCAUCGAGUGA [Fam2.1 aminoacylation ribozyme variant]            true
 5  CCACAUUUCAGGCAAUCGGUC [Fam1B.1 aminoacylation ribozyme variant]            true
 6  AUUACCCUGGUCAUCGGGUGU [Fam2.1 aminoacylation ribozyme variant]            true
 7  CCGCACUUCAAGCAAUCGGUG [Fam1B.1 aminoacylation ribozyme variant]            true
 8  CUACUUUAACCAAUCGGUCUG [Fam1A.1 aminoacylation ribozyme variant]           false
 9  CCAGGCUUCAAGCAAUCGGUC [Fam1B.1 aminoacylation ribozyme variant]            true
10  UUUACGCUGGUCAUCGAGUGA [Fam2.1 aminoacylation ribozyme variant]            true
11  AAUACCAUGGUCAUCGAGUGA [Fam2.1 aminoacylation ribozyme variant]            true
12  CGACACUUCAAGCAAUCGGAC [Fam1B.1 aminoacylation ribozyme variant]            true
13  AUUCAUCUAGGUCAUUGGGUG [Fam2.2 aminoacylation ribozyme variant]            true
14  GUUCAACUAGGUCAUCGGGUG [Fam2.2 aminoacylation ribozyme variant]            true
15  CCUCACUUGAAGCAAUCGGUC [Fam1B.1 aminoacylation ribozyme variant]           false
16  CCACACUUCAAGGAAUCUGUC [Fam1B.1 aminoacylation ribozyme variant]           false
17  AUUCCCCUAGGUUAUCGGGUG [Fam2.2 aminoacylation ribozyme variant]            true
18  CCACACUUAAAGCACUCGGUC [Fam1B.1 aminoacylation ribozyme variant]           false
19  AUAACCCUGGUCAUAGAGUGA [Fam2.1 aminoacylation ribozyme variant]            true
20  AUUAGCCUGGUCAUCGAGUGA [Fam2.1 aminoacylation ribozyme variant]            true
21  CCACACUUCAAGAAACCGGUC [Fam1B.1 aminoacylation ribozyme variant]            true
22  CUACUUCAAACAAUCGUUUUG [Fam1A.1 aminoacylation ribozyme variant]           false
23  AAGUUUGCUAAUAGUAGCAAG [Fam3.1 aminoacylation ribozyme variant]           false
24  AUUACCCUGCUCAUCGAGUGG [Fam2.1 aminoacylation ribozyme variant]            true
25  AAGUUUGCUGAUAGUCGCUAG [Fam3.1 aminoacylation ribozyme variant]            true
26  CACUUUGCUAAUAGUCGCAAG [Fam3.1 aminoacylation ribozyme variant]            true
27  AUUCGCCUAGGUCAUCAGGUG [Fam2.2 aminoacylation ribozyme variant]            true
28  AUUACCCUGGUUCUCGAGUGA [Fam2.1 aminoacylation ribozyme variant]            true
29  AUUCACCCCGGUCAUCGGGUG [Fam2.2 aminoacylation ribozyme variant]            true
30  AAGCUUGCUAAUAGUCACAAG [Fam3.1 aminoacylation ribozyme variant]            true
31  CCGCACUUCAAGCAAUCAGUC [Fam1B.1 aminoacylation ribozyme variant]           false
32  AUUCAACCAGGUCAUCGGGUG [Fam2.2 aminoacylation ribozyme variant]            true
33  AUUACCCUGGUCACCUAGUGA [Fam2.1 aminoacylation ribozyme variant]            true
34  AUUAUCCUGGUCAUCGAGUAA [Fam2.1 aminoacylation ribozyme variant]            true
